The reader will find reported IC50 values listed item by item below.
- targetSystem: Recombinant STAT3 protein (STAT3(G127-I722)) (Homo sapiens)
- Construct: Recombinant STAT3 protein (STAT3(G127-I722))
- Sequence (P40763 127-722): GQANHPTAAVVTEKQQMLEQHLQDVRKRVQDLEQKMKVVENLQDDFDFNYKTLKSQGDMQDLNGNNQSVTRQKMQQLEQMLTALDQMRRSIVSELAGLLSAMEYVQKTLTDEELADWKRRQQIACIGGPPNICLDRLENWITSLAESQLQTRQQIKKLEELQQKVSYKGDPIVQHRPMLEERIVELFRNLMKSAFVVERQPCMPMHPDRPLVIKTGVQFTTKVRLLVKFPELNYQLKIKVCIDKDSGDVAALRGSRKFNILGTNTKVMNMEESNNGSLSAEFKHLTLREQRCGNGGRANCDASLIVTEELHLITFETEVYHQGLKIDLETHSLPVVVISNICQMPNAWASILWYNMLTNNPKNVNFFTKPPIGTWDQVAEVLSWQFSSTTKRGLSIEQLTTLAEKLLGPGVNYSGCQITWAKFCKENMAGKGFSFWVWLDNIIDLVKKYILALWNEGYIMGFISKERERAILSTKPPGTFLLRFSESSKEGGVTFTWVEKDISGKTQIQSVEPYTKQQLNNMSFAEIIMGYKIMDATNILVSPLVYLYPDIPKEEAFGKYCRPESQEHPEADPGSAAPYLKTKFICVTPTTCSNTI
- methodDescription: STAT3 Fluorescence Polarization (FP) Assay
- setupConditions: STAT3(G127-I722) 25 nM, probe 5-FAM-GpYLPQTV-NH2 2 nM, 45-minute incubation

In the examples that follow, each entry is paired with its recorded IC50.
N#CC1CN(C(=O)C2CCC3CNCCC(NC(=O)c4ccc5ccc(C(F)(F)P(=O)(O)O)cc5c4)C(=O)N32)CC1c1ccccc1 (mixture of isomers): 1 to 10 µM
Cc1ccc2[nH]nc(C(=O)N3CC[C@H]4CC[C@@H](C(=O)N5CC(c6cc[nH]c(=O)c6)CC56CC6)N4C(=O)[C@@H](NC(=O)c4ccc5ccc(C(F)(F)P(=O)(O)O)cc5c4)C3)c2c1 (stereo partly drawn): 1 to 10 µM

Lookup result for CC(=O)N1CC[C@H]2CC[C@@H](C(=O)N3CCCc4ccccc43)N2C(=O)[C@@H](NC(=O)c2cc3cc(C(F)(F)P(=O)(O)O)ccc3[nH]2)C1 ; measured IC50: 1 to 10 µM

Attribution: patent US20250179103A1
